All values here come from a protein production outcome set (Wang et al. 2014).

Experiment: label from the status in PepcDB records
measurementKind: protein production

MQGAGRLMQPRPDSAFVHDVRVTWGDCDPAKIAYTGHLPRFALEAIDAWWSEYHGPGGWYHLELDTNVGTPFVRLEMDFKSPVTPRHILKCHTWPTRLGTKSITFRVDGVQDGVTCFVGAFTCVFTIADQFKSQPAPDHLRALIEPHIPA; not failed
MERSIGFGQALKLFWKNYVNFKGRSRRSEYWFMALWNIIFMMPALILYIIGLIMTVSGAASSSEELVAIGVILLFLSICYALIYSLATLIPGWALLIRRFHDTGRTMLMPLIYLGVIVISYPVLFVVNIQDPEYNNPVYIIFFAIIFLVYIALGIYMLVICCLDSERKTNKYGASHKYGNHIKSSTNTYANQDAPIHEDTNVKHVNSEENAFSEEVNTSDENATKKDDNFKY; failed
MEITPKRYWRRWRGYEKLDGSSETTSGRRKGKRVKMDPTRKKRFWRIKIVPKLRILKTASPKKFLVWLRDSYVKMMMRLANSRVVGSSGYGGSGFGSGQMKEYDEKMLVEIYKSILMVQAQGNLVHRDTPNNNLKLPSEPAVVSVVSSVVTC; failed
MSFEAFTELYIRDVKNRLKENTWLTKEHIIRTKILPFFGKLKISEISTKEIITWQNEMLAYRDEKKKPYSQTYLKTLHNQLSAIFNHAVRYYELRSNPAAKVGNMGSELEHHHHHH; not failed

====

Experiment: label from the status in PepcDB records
measurementKind: protein production

MTPIPLINIPLCNLAGDGYILSEKSQSQNMLRGIVMSETVRVGLLGYGYASKTFHAPLIAGTAGMELVAVSSSNAEKVHADWANLRVEKDPQALFSDPDIDLIVIPTPNDTHFPLAKQALEAGKHVVVDKPFTVTLSQAYDLGAIAERAGKVLSVFHNRRWDSDFLTLKQLLSAGTLGNVVYMESHFDRFRPEVRQRWREDGSEGSGIWYDLGPHLLDQALELFGLPVAIQVDMAQLRPGSKATDYFHATLIYPQRRVILHASMLVAAASARYTVHGTRGSFVKYGLDPQEDRLKAGERPPLADWGQDKHDGVLTLSRDGITAEQTIATIPGNYPAYYAAVRDALLGKGENPVGVNQAIQVMELIELGLLSHEQKKAVALKNSLEHHHHHH; failed
MPDTPLLASSQPAAGRRALGLSARLAFAALAGGGGLAWIDRGDTALWLIAPALLWLQVLLTLAGVLALAGGSRLPGALIVALSAGLLVPPLTVEMRLLGFFLAAPPPDQSILTTAQYTLAGALAAGALAWILARRRFGRPPCSWTMLDCGGPGAEIDMDAALASLSAETLRRRDRAYIDAPPPLPFAPRGPPRPPPPTLGGPRLKRMPAGLGGAILCLESDDHTLRVHTTQGSGTLAGRLGDAALDLGESAGLRVHRSWWVAREAVSAIERDGRRMRLILLNGMDVPVSRAHQPKVLAGPWPNLRVS; failed

====

Assay: label from the status in PepcDB records
measurementKind: protein production

MASLSQLSSHLNYTCGAENSTGASQARPHAYYALSYCALILAIVFGNGLLCMAVLKERALQTTTNYLVVSLAVADLLVATLVMPWVVYLEVTGGVWNFSICCDVFVTLDVMMCTASILNLCAISIDRYTAVVMPVHYQHGTGQSSCRRVALMITAVWVLAFAVSCPLLFGFNTTGNPTVCSISNPDFVIYSSVVSFYLPFGVTVLVYARIYVVLKQRRRKRILTRQNSQCNSVRPGFPQQTLSPDPAHLELKRYYSICQDTALGGPGFQERGGELKREEKTRNSLSPTIAPKLSLEVRKLSNGRLSTSLKLGPLQPRGVPLREKKATQMVAIVLGTFIVCWLPFFLTHVLNTHCQTCHVSPELYSATTWLGYVNSALNPVIYTTFNIEFRKAFLKILSC; not failed
MGHHHHHHSHSPSPSSRVTVSRASSSRSVRTTRGKRKRVDVEESEASSSVSISHSASATGNVCIEEIDVDGKFIRLKNTSEQDQPMGGWEMIRKIGDTSVSYKYTSRYVLKAGQTVTIWAANAGVTASPPTDLIWKNQNSWGTGEDVKVILKNSQGEEVAQRSTVFKTTIPEEE; not failed
